system: maternal HIV+ sera (antibodies); test: RIA / ELISA binding of maternal HIV+ sera to gp120 and gp41 peptides (Example 3); design: species or system human; settings: all 20 samples
Response field label: string, one of t (Percent of the maternal serum samples that bound to the peptide strictly below 40%) or f.

residues: RIQRGPGRAFVTIGK [p18p]
class_name: t
--
residues: CTKAKRRVVQREKA [Peptide 497]
class_name: f
--
residues: CQNQQEKNEQELLEL [Peptide 649]
class_name: f
--
residues: NATAIAVAEGTDRVIEVVQGAYRAI [1103/55]
class_name: f
--
residues: CFRPGGGDMRDNWREL [Peptide 466]
class_name: t
--
residues: LAVERYLKDQQLLGI [Peptide 121]
class_name: t
--
residues: CTRPNNNTRKSIRIQ [Peptide 106]
class_name: t
--
residues: TRKSIRIQRGPGRAF [Peptide 107]
class_name: f
--
residues: RKSIGIQRGPGR [Peptide 1029-33]
class_name: f

----------
test system: maternal HIV+ sera (antibodies); experiment: RIA / ELISA binding of maternal HIV+ sera to gp120 and gp41 peptides (Example 3); parameters: species or system human; conditions: 20 maternal sera
property_label: Number of maternal sera binding to peptide

residues: KQFINMWQEVGKAMYAPP [Peptide B138]
reading: Seven
--
residues: TLPCASDAKAYDTEV [Peptide 93]
reading: six
--
residues: THACVPTDPNPQEVV [Peptide 95]
reading: three
--
residues: CFRPGGGDMRDNWREL [Peptide 466]
reading: three
--
residues: YDTEVHNVWATHACV [Peptide 94]
reading: two

----------
test system: maternal HIV+ sera (antibodies); assay: RIA / ELISA binding of maternal HIV+ sera to gp120 and gp41 peptides (Example 3); design: species or system human; conditions: Non-transmitter group, n = 13
Assign class by Percentage of sera samples demonstrating binding to peptide, non-transmitter: not lower than 30% means Y; lower than 30% means N.

residues: CTRPNNNTRKSIRIQ [Peptide 106]
assay_system: maternal HIV+ sera (antibodies)
class_name: N
//
residues: CTKAKRRVVQREKA [Peptide 497]
assay_system: maternal HIV+ sera (antibodies)
class_name: Y
//
residues: TRKSIRIQRGPGRAF [Peptide 107]
assay_system: maternal HIV+ sera (antibodies)
class_name: Y
//
residues: RKSIGIQRGPGR [Peptide 1029-33]
assay_system: maternal HIV+ sera (antibodies)
class_name: Y

----------
system: HIV-IIIB viral isolate; assay: Neutralization assay (HIV-IIIB, Hut-78 cells, p24 antigen ELISA); type: cell-based, HIV-1 IIIB; set-up: key: --: (-) indicates negative (i.e. a dilution of <1:10); details: HIV-IIIB, Hut-78 cells, p24 OD450 after 6 days; vs normal human serum
property_label: Neutralization Activity, Dilution Resulting in ≥50% Inhibition

substance: HP1: gp120 peptide, amino acids 93-107, SEQ ID NO:99 (FNMWKNDMVEQMHED)
reading: --
//
substance: HP3: gp120 peptide, amino acids 102-116, SEQ ID NO:101 (EQMHEDIISLWDQSL)
reading: 1:90
//
substance: HP10: gp120 peptide, amino acids 157-171, SEQ ID NO:105 (CSFNISTSIRGKVQK)
reading: --
//
substance: HP2: gp120 peptide, amino acids 98-112, SEQ ID NO:100 (NDMVEQMHEDIISLW)
reading: --
//
substance: 17: gp120 peptide, amino acids 267-282, SEQ ID NO:111 (EEEVVIRSVNFTDNAK) [Peptide 17]
reading: 1:810
//
substance: HP9: gp120 peptide, amino acids 141-155, SEQ ID NO:104 (NSSSGRMIMEKGEIK)
reading: 1:810
//
substance: HP7: gp120 peptide, amino acids 107-121, SEQ ID NO:103 (DIISLWDQSLKPCVK)
reading: 1:810
